Please provide measured viability, T/C for the entries that follow.
test system: NCI-H719 tumor spheroids, viability; assay: Anticancer human tumor NCI-H719 cell line growth inhibition; conditions: second compound 0.00949 µM; first compound 0.0316 µM; stronger effect = lower value; spheroids with HUVEC and MSC;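 note: spheroids exposed to compounds for seven days; percent viability relative to DMSO vehicle control as 100%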
Just the number in %, nothing appended.

I'm curious: which viability, T/C was measured for COc1ccc([C@@H](O)c2cc(-c3ncnc4cc(N5CCOCC5)ccc34)c(F)cc2Cl)nn1 + CC[C@@]1(O)C(=O)OCc2c1cc1n(c2=O)Cc2cc3c(CN(C)C)c(O)ccc3nc2-1 tested on NCI-H719 tumor spheroids, viability?
8.42

Form: Entry = [2H]c1nc(C)nc([2H])c1-c1cc(NC[C@@H](C)c2cccc3c(C(=O)NC)ccnc23)ncn1 + CC[C@@]1(O)C(=O)OCc2c1cc1n(c2=O)Cc2cc3c(CN(C)C)c(O)ccc3nc2-1 | System = NCI-H719 tumor spheroids, viability | viability, T/C = ____
10.3

Enter reported viability, T/C observed with NCI-H719 tumor spheroids, viability for CC1COCCN1c1cc(-c2ccnn2C)c2ccnc(-c3ccn[nH]3)c2n1 (stereo not drawn) + CC[C@@]1(O)C(=O)OCc2c1cc1n(c2=O)Cc2cc3c(CN(C)C)c(O)ccc3nc2-1
5.44
